From: PubChem BioAssay (NCI)

growth for assorted compounds
Test system: KM12 colon
assay-protocol: NCI-60 one-dose screen, 48 h (100 = growth as untreated, 0 = no growth, -100 = all killed)
conditions-used: 10 µM unless noted
The panel holds about 83,000 compounds, 20% with a hit somewhere; the sample as a whole holds those more often.
The reply should contain only the number, in %.

>>> value_measured("CN=C1C=CC(=C(c2ccc(N(C)C)cc2)c2ccc(N(C)C)cc2)C=C1")
-76.2
>>> value_measured("COc1ccc(OC)c(Nc2nc3nonc3nc2Nc2cc(OC)ccc2OC)c1")
67.4
>>> value_measured("N=C(N)c1ccc(-c2ccc(-c3ccc(Cl)cc3Cl)o2)nc1")
-35.5

Challenge: Give the reported growth for CCCCN(Cc1ccc(C(=O)NO)cc1)C(=O)Nc1ccc(OCCCCCCCCCn2cc(CCCCC(=O)N[C@H](C(=O)N3C[C@H](O)C[C@H]3C(=O)NCc3ccc(-c4scnc4C)cc3)C(C)(C)C)nn2)cc1 (system: KM12 colon).
Response given: 22.1

Challenge: Then this compound: CCCCOc1nc2ccc(Cl)cc2cc1/C=C/C(=O)/C=C1/CC(c2cc3cc(Cl)ccc3nc2OCCCC)Nc2ccccc2N1 (stereo not drawn)
Response given: 101

Challenge: Then this compound: COc1ccc(OC)c(/C=C2\COc3ccc(O)c(O)c3C2=O)c1
Response given: 16.4

Challenge: Then this compound: COc1cc(-c2cccc([N+](=O)[O-])c2)c(-c2nc(-c3ccccc3)c(-c3ccccc3)n2C2CC2)cc1OC
Response given: 67.3

Challenge: Then this compound: CCCCOC(=O)c1ccc(NC(=O)C(C)N2CCOCC2)cc1 (stereo not drawn)
Response given: 109

* * *

Test system: LOX IMVI melanoma
assay-protocol: NCI-60 one-dose screen, 48 h
conditions-used: 10 µM unless noted
The panel holds about 83,000 compounds, 20% with a hit somewhere; the sample as a whole holds those more often. Calls of active or inactive are those of the source. How the source made its calls: active means growth percent below 10; inactive means the rest.
Pick from t for active, f for inactive when you respond.

Solved cases (5 shown):
>>> class_name("N=C(N)c1ccc(-c2ccc(-c3ccc(Cl)cn3)s2)cc1")
"t"
>>> class_name("Cl.Fc1c[c-]c(-c2ccccn2)c(F)c1.[Pt].c1ccc(P(c2ccccc2)C([PH+](c2ccccc2)c2ccccc2)[PH+](c2ccccc2)c2ccccc2)cc1")
"f"
>>> class_name("N#Cc1c(N)nc2c(nnn2-c2cccc(Br)c2)c1N")
"f"
>>> class_name("COc1ccc(C2CC(c3ccccc3)=NN2c2nc(C)c(C(C)=O)s2)cc1 (stereo not given)")
"f"
>>> class_name("CCn1c(Sc2nnc(NC(=O)CSC(=S)N3CCCCC3)s2)nc2c1c(=O)n(C)c(=O)n2C")
"f"

Challenge: Hey, what did the test say about Cn1cc(-c2ccc3ncc(-c4ccc(CC(=O)Nc5cc(C(C)(C)C)nn5C)cc4)cc3c2)cn1 ?
Response given: t

Challenge: Then this compound: CC(C)(C)OC(=O)N1Cc2cc3ccccc3nc2C1CO (stereo not given)
Response given: f

Challenge: Then this compound: OCCCCc1nccc2c1[nH]c1ccccc12
Response given: f

Challenge: Then this compound: CC(C)N(CCOC(=O)Nc1ccccc1Cl)C(C)C
Response given: f

Challenge: Then this compound: COc1cc2ccccc2cc1C(=O)NC(=S)Nc1ccc(-c2nc3ccccc3[nH]2)cc1
Response given: f
